Give Total Cell Count for every item shown.
- Tested on: HEK-293T
- method: Multiplex assay against HEK293T
- Type: toxicity, cell-based
- experimentalSetup: human, 48 h, 10 µM, compound concentration 10 uM, replicate 1
API doc: respond with a numeric literal and nothing else, no unit.

HEK-293T Total Cell Count of `COc1cc(N2CCN(C)CC2)ccc1Nc1ncc2c(n1)N(C)c1ccccc1C(=O)N2C` is 210

HEK-293T Total Cell Count of CCOC(=O)c1c(C)[nH]c2ccc3c(c12)CN1CCc2cc(OC)ccc2C1O3 (centres undefined) is 290

HEK-293T Total Cell Count of `Cc1ccc(C(=O)Nc2cccc(C(F)(F)F)c2)cc1Nc1nc(-c2cccnc2)nc2c1cnn2C` is 258

HEK-293T Total Cell Count of `CNc1cc(Oc2cc(C(=O)Nc3cc(N4CCN(C)CC4)cc(C(F)(F)F)c3)ccc2C)ncn1` is 273

----------
- Tested on: U2OS
- method: Multiplex assay against U2OS
- Assay type: toxicity, cell-based
- experimentalSetup: human, 48 h, 10 µM, compound concentration 10 uM, replicate 1
Give Population Mitochondria Different-Phenotype (%) for every item shown.
Could you give me the number in %? Just the number is fine.

U2OS Population Mitochondria Different-Phenotype (%) of `O=C(Nc1ccc(Cl)cc1)Nc1cccc(-c2cccc(N3CCCC3)n2)c1` is 29

U2OS Population Mitochondria Different-Phenotype (%) of `CCc1cccc(CC)c1NC(=O)c1nn(C)c2c1CCc1cnc(Nc3ccc(C(=O)NC4CCN(C)CC4)cc3OC(F)(F)F)nc1-2` is 95

U2OS Population Mitochondria Different-Phenotype (%) of `CCCS(=O)(=O)c1nc(NC2CC2)cc(-c2ccc3c(ccn3C3CC(C)(C)NC(C)(C)C3)c2)n1` is 37

U2OS Population Mitochondria Different-Phenotype (%) of `Cl.O=C(c1ccc(Nc2nccc(-c3cc4ccccc4s3)n2)cc1)N1CCC(N2CCCC2)CC1` is 100

----------
Give Population Mitochondria Different-Phenotype (%) for every item shown.
- Test system: U2OS
- method: Multiplex assay against U2OS
- Type: toxicity, cell-based
- experimentalSetup: human, 48 h, 1 µM, compound concentration 1 uM, replicate 2
Could you give me the number in %? Just the number is fine.

U2OS Population Mitochondria Different-Phenotype (%) of `COc1cc(N2CCN(C)CC2)ccc1Nc1ncc2c(n1)N(C)c1ccccc1C(=O)N2C` is 16

U2OS Population Mitochondria Different-Phenotype (%) of CN1CCC(=C2c3ccccc3CC(=O)c3sccc32)CC1.O=C(O)/C=C/C(=O)O [KETOTIFEN FUMARATE] is 9

U2OS Population Mitochondria Different-Phenotype (%) of `CCc1cccc(CC)c1NC(=O)c1nn(C)c2c1CCc1cnc(Nc3ccc(C(=O)NC4CCN(C)CC4)cc3OC(F)(F)F)nc1-2` is 19

U2OS Population Mitochondria Different-Phenotype (%) of CCOC(=O)c1c(C)[nH]c2ccc3c(c12)CN1CCc2cc(OC)ccc2C1O3 (stereo unspecified) is 27

U2OS Population Mitochondria Different-Phenotype (%) of `O=C(Nc1ccc(-n2nc(-c3cccnc3)cc2C(F)(F)F)cn1)c1ccc(-c2ccccc2)c(F)c1` is 10

U2OS Population Mitochondria Different-Phenotype (%) of `O=C1NC(=O)C(c2cnc3ccccn23)=C1c1cn2c3c(cc(F)cc13)CN(C(=O)N1CCCCC1)CC2` is 17

U2OS Population Mitochondria Different-Phenotype (%) of `CCCn1c(=O)c2[nH]c(-c3cnn(Cc4cccc(C(F)(F)F)c4)c3)nc2n(CC)c1=O` is 13

U2OS Population Mitochondria Different-Phenotype (%) of `CNc1cc(Oc2cc(C(=O)Nc3cc(N4CCN(C)CC4)cc(C(F)(F)F)c3)ccc2C)ncn1` is 54

U2OS Population Mitochondria Different-Phenotype (%) of `S=C(NCCCc1c[nH]cn1)NCCCN(Cc1ccc(Cl)c(Cl)c1)c1ccc(Br)cn1` is 10

U2OS Population Mitochondria Different-Phenotype (%) of `CCOc1cc(C(=O)N2CCC(N3CCN(C)CC3)CC2)ccc1Nc1ncc2c(n1)N(C1CCCC1)c1ccccc1C(=O)N2C` is 40

U2OS Population Mitochondria Different-Phenotype (%) of `Cl.O=c1c2cccn2c2ccccc2n1CCCN1CCC(c2ccc(Cl)cc2)CC1` is 24

U2OS Population Mitochondria Different-Phenotype (%) of CN1C2CCC1CC(OC(c1ccc(F)cc1)c1ccc(F)cc1)C2.Cl (stereo unspecified) is 16

U2OS Population Mitochondria Different-Phenotype (%) of `O=C(Cc1ccc(-c2ccc(OCCN3CCOCC3)cc2)cn1)NCc1ccccc1` is 64

U2OS Population Mitochondria Different-Phenotype (%) of `CCCS(=O)(=O)c1nc(NC2CC2)cc(-c2ccc3c(ccn3C3CC(C)(C)NC(C)(C)C3)c2)n1` is 17

U2OS Population Mitochondria Different-Phenotype (%) of `Cl.Oc1ccc2c3c1O[C@H]1c4[nH]c5c(c4C[C@@]4(O)[C@@H](C2)N(CC2CC2)CC[C@]314)C[C@@]1(O)[C@H]2Cc3ccc(O)c4c3[C@@]1(CCN2CC1CC1)[C@H]5O4` is 16

U2OS Population Mitochondria Different-Phenotype (%) of `Cc1cn(-c2cc(NC(=O)c3ccc(C)c(Nc4nccc(-c5cccnc5)n4)c3)cc(C(F)(F)F)c2)cn1` is 18

----------
- Tested on: Fibroblast
- method: Multiplex assay against human fibroblast
- Type: toxicity, cell-based
- experimentalSetup: 48 h, 10 µM, compound concentration 10 uM, replicate 2
measuredEndpoint: Population Normal (%)
Could you give me the number in %? Just the number is fine.

The recorded Population Normal (%) for `O=C1NC(=O)C(c2cnc3ccccn23)=C1c1cn2c3c(cc(F)cc13)CN(C(=O)N1CCCCC1)CC2` is 83

The recorded Population Normal (%) for `CCCn1c(=O)c2[nH]c(-c3cnn(Cc4cccc(C(F)(F)F)c4)c3)nc2n(CC)c1=O` is 88

The recorded Population Normal (%) for `CNc1cc(Oc2cc(C(=O)Nc3cc(N4CCN(C)CC4)cc(C(F)(F)F)c3)ccc2C)ncn1` is 65

The recorded Population Normal (%) for `CCn1c(=O)c(-c2ccc(-c3cncs3)cc2Cl)cc2cnc(Nc3ccc(N4CCN(C)CC4)cc3)nc21` is 88

----------
- Test system: HEK-293T
- method: Multiplex assay against HEK293T
- Type: toxicity, cell-based
- experimentalSetup: human, 24 h, 1 µM, compound concentration 1 uM, replicate 1
measuredEndpoint: Population Pyknosed Nuclei (%)
Could you give me the number in %? Just the number is fine.

The recorded Population Pyknosed Nuclei (%) for `CCOc1cc2ncc(C#N)c(Nc3ccc(OCc4ccccn4)c(Cl)c3)c2cc1NC(=O)/C=C/CN(C)C` is 59

The recorded Population Pyknosed Nuclei (%) for `CCc1cccc(CC)c1NC(=O)c1nn(C)c2c1CCc1cnc(Nc3ccc(N4CCN(C)CC4)cc3OC)nc1-2` is 63

The recorded Population Pyknosed Nuclei (%) for `Cl.Oc1ccc2c3c1O[C@H]1c4[nH]c5c(c4C[C@@]4(O)[C@@H](C2)N(CC2CC2)CC[C@]314)C[C@@]1(O)[C@H]2Cc3ccc(O)c4c3[C@@]1(CCN2CC1CC1)[C@H]5O4` is 50

The recorded Population Pyknosed Nuclei (%) for `CN[C@@H]1C[C@H]2O[C@@](C)([C@@H]1OC)n1c3ccccc3c3c4c(c5c6ccccc6n2c5c31)C(=O)NC4` is 46

The recorded Population Pyknosed Nuclei (%) for `COc1ccc(-c2ccc3c(N4CCOCC4)nc(N4C[C@@H](C)O[C@@H](C)C4)nc3n2)cc1CO` is 8

The recorded Population Pyknosed Nuclei (%) for `COc1cc(N2CCN(C)CC2)ccc1Nc1ncc2c(n1)N(C)c1ccccc1C(=O)N2C` is 37

The recorded Population Pyknosed Nuclei (%) for `Cc1ccc(C(=O)Nc2cccc(C(F)(F)F)c2)cc1Nc1nc(-c2cccnc2)nc2c1cnn2C` is 46

The recorded Population Pyknosed Nuclei (%) for `O=C(Nc1cccnn1)N1CCC(=Cc2cccc(Oc3ccc(C(F)(F)F)cn3)c2)CC1` is 27

The recorded Population Pyknosed Nuclei (%) for `O=C1N/C(=N/c2ccccc2F)S/C1=C\c1ccc(C(=O)O)cc1` is 45

The recorded Population Pyknosed Nuclei (%) for `O=C(Nc1ccc(-n2nc(-c3cccnc3)cc2C(F)(F)F)cn1)c1ccc(-c2ccccc2)c(F)c1` is 43

The recorded Population Pyknosed Nuclei (%) for `CNc1cc(Oc2cc(C(=O)Nc3cc(N4CCN(C)CC4)cc(C(F)(F)F)c3)ccc2C)ncn1` is 69

The recorded Population Pyknosed Nuclei (%) for `CCN1CCN(Cc2ccc(Nc3ncc(F)c(-c4cc(F)c5nc(C)n(C(C)C)c5c4)n3)nc2)CC1.CS(=O)(=O)O` is 47

The recorded Population Pyknosed Nuclei (%) for `COc1cccc2cc(-c3nc([C@H]4CC[C@H](C(=O)O)CC4)n4ncnc(N)c34)[nH]c12` is 24

The recorded Population Pyknosed Nuclei (%) for `C=CCn1c(=O)c2cnc(Nc3ccc(N4CCN(C)CC4)cc3)nc2n1-c1cccc(C(C)(C)O)n1` is 30

The recorded Population Pyknosed Nuclei (%) for `O=C(Cc1ccc(-c2ccc(OCCN3CCOCC3)cc2)cn1)NCc1ccccc1` is 61

The recorded Population Pyknosed Nuclei (%) for `CCn1c(=O)c(-c2ccc(-c3cncs3)cc2Cl)cc2cnc(Nc3ccc(N4CCN(C)CC4)cc3)nc21` is 45
